Values from PubChem BioAssay (NCI)

Field: growth inhibition. Provide a value for each of the compounds that follow.
- assay_text: NCI Yeast Anticancer Drug Screen. Data for the mec2-1 strain (AID 157)
- cond: S. cerevisiae mec2-1 strain, at 5.0 µM (retest, dose inferred, filed as 0.5), hits give high values
About 79,000 compounds went through this panel and 15% of them were active in at least one assay; those are over-represented in the sample as a whole.
Give bare numbers, in %.

Please report growth inhibition for every entry that follows.
1. O=C(O)c1ccc2cc3ccccc3cc2c1
2. COC1OC2COC(c3ccccc3)OC2C(NC(=S)SCc2ccccc2)C1O (centres undefined)
3. CCCCCCCCCCn1cc[nH]c1=S

# output
1. 5
2. 0
3. 47

Please report growth inhibition for every entry that follows.
1. O=C1c2ccc(O)c(O)c2C(=O)c2c(O)ccc(O)c21
2. CCOC(=O)C1CN(CCCCCCN2CC(C(=O)OCC)C(=O)C2=O)C(=O)C1=O (centres undefined)
3. COc1ccccc1N=Nc1c(N)nc(N)[nH]c1=O
4. CCOc1c(N=Nc2ccc(Cl)cc2)c(-c2ccccc2)nn1C(N)=S
5. CCC1C(c2ccccc2O)c2cc3c(cc2OC1N1CCOCC1)OCO3 (centres undefined)
6. COc1nc(NC2OCC(O)C(O)C2O)c(Cl)c(=O)n1C (centres undefined)
7. COc1cc(C2c3cc4c(cc3OC(NNc3ccccc3)C2C)OCO4)cc(OC)c1O (centres undefined)
8. COc1ccc2c(Cc3cc(Cl)ccc3O)cncc2c1O

# output
74
2
-10
-11
-32
-1
-15
-8

Please report growth inhibition for every entry that follows.
1. NNC(=O)C(=O)N/N=C(/CCC(=O)NCCc1ccccc1)CC(=O)c1ccccc1
2. CC(=O)n1c(=S)n(C(C)=O)c2ccccc21
3. O=C(CSc1nnc(-c2ccc(N=Cc3ccc(Cl)cc3)cc2)o1)Nc1ccccc1Cl
4. Cc1ccc(S(=O)(=O)CC(=O)CC(=O)C(=O)Nc2cc(C)ccc2C)cc1
5. COc1cc(/C=C/c2cc[n+](C)cc2)ccc1O

# output
1. 1
2. -16
3. -10
4. -2
5. 12

Please report growth inhibition for every entry that follows.
1. CC1(C)OC2C(COC(c3ccccc3)(c3ccccc3)c3ccccc3)OC(n3cnc4c(N)ncnc43)C2O1 (centres undefined)
2. CC(=O)c1ccc(Cl)c(N=Cc2cc(Br)ccc2O)c1
3. CC(=O)CC(=O)OCc1ccccc1
4. CCCCCCCC/C=C\CCCCCCCC(=O)OCCCCC
5. O=C1NC(=S)S/C1=C/c1ccc(/C=C2/SC(=S)NC2=O)cc1
6. Cc1ccc(NNC(=O)C(O)C(O)C(O)C(O)CO)cc1 (centres undefined)
7. Cc1cc([N+](=O)[O-])cc(C)c1OC(=O)Nc1c(Cl)cccc1Cl
8. O=C(Nc1ccccc1)OC1CCCC1

# output
[19, 35, 4, -5, -10, 99, 30, 11]

###

Field: growth inhibition. Provide a value for each of the molecules that follow.
- assay_text: NCI Yeast Anticancer Drug Screen. Data for the sgs1 mgt1 strain (AID 161);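 note: 0% = growth of cultures given vehicle only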
- cond: S. cerevisiae sgs1 mgt1 strain, at 5.0 µM (retest, dose inferred, filed as 0.5), hits give high values
- Procedure: Growth inhibition of yeast strains with defined genetic alterations is measured as a screen for potential anti-cancer activity. Selected strains with alterations in DNA damage repair or cell cycle control were exposed to compounds and growth inhibition was measured relative to vehicle treated controls. The strain used in this assay is sgs1 mgt1
About 79,000 compounds went through this panel and 15% of them were active in at least one assay; those are over-represented in the sample as a whole.
Give bare numbers, in %.

Some entries whose results are on file:
COc1ccc(C)c2nc3ccccc3nc12	-64
CC1(C)COC(C)(C(=O)O)OC1	4
CSC(=Nc1ccccc1)/N=C(\SCc1ccccc1)N(C)C	27
O=C(NN1C(=O)C(Cl)C1c1ccc(O)cc1)c1ccccc1O (stereo unspecified)	0
CCC[CH2][Sn]([CH2]CCC)([O]C(=O)Cc1ccc(F)cc1)[O]C(=O)Cc1ccc(F)cc1	27

Please report growth inhibition for every entry that follows.
1. Oc1ccc(/C=N/NC(=S)NC2CC3CC2C2C=CCC32)c(O)c1 (stereo unspecified)
2. COc1ccc2c(C)cc(N/N=C(\C)c3ccccn3)nc2c1
3. NC(=Nc1ccccc1)c1ccc2c(c1)c1c(n2Cc2ccccc2)CCCC1
4. O=c1c2ccccc2ncn1Cc1ccccc1[N+](=O)[O-]
5. NNc1c(Cl)cc(Cl)cc1Cl
6. COc1ccc(/C(=N\Nc2ccc(Br)cc2)c2ccccc2/C(=N/Nc2ccc(Br)cc2)c2ccccc2OC)cc1

# output
[49, 7, -5, 0, 12, 5]

###

- assay_text: NCI Yeast Anticancer Drug Screen. Data for the sgs1 mgt1 strain (AID 161);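 note: 0% = growth of cultures given vehicle only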
- cond: S. cerevisiae sgs1 mgt1 strain, at 50.0 µM, hits give high values
Compounds without any hit were thinned out: in the full panel of roughly 79,000, 15% have a hit.
Field: growth inhibition. Provide a value for each of the molecules that follow.
Answers are plain numbers, in %.

CC(C)(C)[Si](C)(C)OCC1OC(n2cc(I)c(N)nc2=O)C(O[Si](C)(C)C(C)(C)C)C1O[Si](C)(C)C(C)(C)C (stereo unspecified)	36.1
O=C1CC2(CCN(CC3COc4ccccc4O3)CC2)C(=O)N1N1CCCCCC1 (stereo unspecified)	82.8
CCCC1(C)C(C#N)(C#N)C1(C#N)C#N	99.3
Clc1ccccc1C(Cc1c(Cl)cccc1Cl)Cn1ccnc1 (stereo unspecified)	99.8
CCCCCCN(CCCCCC)CCC(=O)c1ccc2cc(Cl)c3ccccc3c2c1	78.2
CC(C)(C)c1cc(C2c3cc4c(cc3OC(O)(CO)C2C(=O)O)OCO4)cc(C(C)(C)C)c1O (stereo unspecified) (tested in a mixture with another compound)	37
Cc1ccc(OCC2CO2)c(Br)c1 (stereo unspecified)	49.6
Cc1cn(C(C#N)=C(C#N)C#N)c2ccccc12	-4.65

Please report growth inhibition for every entry that follows.
1. CCN(CC)C(=S)N/N=C(/c1ccccc1)c1ccccn1
2. Cc1cc(N)cc(C)c1-c1c(N)cc(Br)cc1Br
3. ONC(=Nc1cccc2ccccc12)C(=Nc1cccc2ccccc12)NO

# output
81.8
98.3
13.4

###

Field: growth inhibition. Provide a value for each of the compounds that follow.
- assay_text: NCI Yeast Anticancer Drug Screen. Data for the mec2-1 strain (AID 157)
- cond: S. cerevisiae mec2-1 strain, at 5.0 µM (retest, dose inferred, filed as 0.5), hits give high values
About 79,000 compounds went through this panel and 15% of them were active in at least one assay; those are over-represented in the sample as a whole.
One number for each entry, in %.

CCCCCCSc1nn(CCC#N)c(=O)[nH]c1=O	5

Please report growth inhibition for every entry that follows.
1. COC1CCCCC1C(=O)C(C#N)C1CCCCC1C1CCCCC1 (stereo not given)
2. CCC(CC)COC(=O)c1cccnc1
3. CN(C)CCC(=O)[C@@]1(O)CC[C@H]2[C@@H]3CC=C4C[C@@H](O)CC[C@]4(C)[C@H]3CC[C@@]21C

# output
3
-19
11

###

- assay_text: NCI Yeast Anticancer Drug Screen. Data for the mec2-1 strain (AID 157)
- cond: S. cerevisiae mec2-1 strain, at 50.0 µM (retest, dose inferred, filed as 5.0)
About 79,000 compounds went through this panel and 15% of them were active in at least one assay; those are over-represented in the sample as a whole. Calls of active or inactive are those of the source. Rule as the data show it: active = growth inhibition above about 70%; inactive = the rest.
Return exactly one item of Y for active, N for inactive

O=c1c2cc3c(cc2c2cccc4c2n1CCC4)OCO3	N
Oc1ccccc1C1CCCCC1	N
COc1cccc(C2CC(C)(O)Oc3cc4c(cc32)OCO4)c1 (configuration not stated)	N

# input Status in this test for Cc1c(N)nc(C(CC(N)=O)NCC(N)C(N)=O)nc1C(=O)NC(C(=O)NC(C)C(O)C(C)C(=O)NC(C(=O)NCCc1nc(-c2nc(C(=O)NCCCNC(C)c3ccccc3)cs2)cs1)C(C)O)C(OC1OC(CO)C(O)C(O)C1OC1OC(CO)C(O)C(OC(N)=O)C1O)c1cnc[nH]1 (configuration not stated) ?
# output Y

# input Status in this test for "OCCN1c2ccccc2Sc2ccc(Cl)cc21" ?
# output Y

# input Status in this test for "Nc1cc(F)cc(F)c1[N+](=O)[O-]" ?
# output N

# input Status in this test for COC(=O)C(=O)C(=O)C1CCCC(c2ccccc2)C1=O (configuration not stated) ?
# output Y

# input Status in this test for "O=S(=O)(Sc1ccccc1)c1ccccc1" ?
# output Y

# input Status in this test for "CN(C)CCNc1ccc2nnn3c4ccc(O)cc4c(=O)c1c23" ?
# output N

# input Status in this test for COC(=O)C1=Cc2cc3c(cc2[C@H](c2ccc4c(c2)OCO4)C1C(=O)OC)OCO3 (some centres not stated) ?
# output N

# input Status in this test for "O=c1[nH]c2c([N+](=O)[O-])cc(Cl)cc2nc1/C=C(\O)c1ccc2ccccc2c1" ?
# output Y

# input Status in this test for COC(=O)CCC(NC(=S)N/N=C(\C)c1cnc2ccccc2n1)C(=O)OC (configuration not stated) ?
# output N

# input Status in this test for CCC[CH2][Ge]([CH2]CCC)([CH2]CCC)[O]C(=O)C(OC(C)=O)c1ccccc1 (configuration not stated) ?
# output Y
